- Test system: acute experimental autoimmune encephalomyelitis (aEAE)
- assay_explanation: inhibition of acute experimental autoimmune encephalomyelitis (aEAE) in mice
- Format: in vivo, mice (STUN female)
- run_parameters: 0.2 mg/kg p.o.; percent inhibition of clinical scores vs saline treated controls
// reported % aEAE Inhibition per item
metric_name: % aEAE Inhibition (%)

1) CCN(C(=O)c1c(O)c2c(SC)cccc2n(C)c1=O)c1ccccc1 [Compound A]; 49
2) CSc1cccc2c1c(O)c(C(=O)N(C)c1ccc(F)cc1F)c(=O)n2C [Compound B]; 67
3) CSc1ccc2c(c1)c(O)c(C(=O)N(C)c1ccc(F)cc1F)c(=O)n2C [Compound D]; 0
4) CCN(C(=O)c1c(O)c2cc(SC)ccc2n(C)c1=O)c1ccccc1 [Compound C]; 23
